B1: Serine/threonine-protein kinase plo1 (Schizosaccharomyces pombe (strain ATCC 38366 / 972)), P50528 (parent)
chain: MASVAIKEPKTAITPKKKSKASRLCFTPPTNLHNNKKNIFYTRYDCIGEGGFARCFRVKDNYGNIYAAKVIAKRSLQNDKTKLKLFGEIKVHQSMSHPNIVGFIDCFEDSTNIYLILELCEHKSLMELLRKRKQLTEPEVRYLMMQILGALKYMHKKRVIHRDLKLGNIMLDESNNVKIGDFGLAALLMDDEERKMTICGTPNYIAPEILFNSKEGHSFEVDLWSAGVVMYALLIGKPPFQDKEVKTIYRKIKANSYSFPSNVDISAEAKDLISSLLTHDPSIRPSIDDIVDHEFFHTGYMASTLPDEILHSMPIWPSSQSKSSFQRNLDFVASASGVGFGNSAGVEKNKPYALRTDEVDNDRILPSVLSPRDRVNPVMKIGPETKPVPSKLSTALHAARKSTDGSLGSRVKVLREESQSFVPTKSAVTEQVEPIQLIRSLSANTVSRLSKVGNMKSDIWISVKKTALKIGMALEAHTHALTSEDADSEPVLFITKWVDYSNKYGLGYQLSDESVGVHFNDDTSLLFSADEEVVEYALHPKDTEIKPYIYPASKVPESIRSKLQLLKHFKSYMGQNLSKAVQDESFEKPKNSTSNTMLFMQHYLRTRQAIMFRLSNGIFQFNFLDHRKVVISSTARKIIVLDKERERVELPLQEASAFSEDLRSRLKYIRETLESWASKMEVS
partner: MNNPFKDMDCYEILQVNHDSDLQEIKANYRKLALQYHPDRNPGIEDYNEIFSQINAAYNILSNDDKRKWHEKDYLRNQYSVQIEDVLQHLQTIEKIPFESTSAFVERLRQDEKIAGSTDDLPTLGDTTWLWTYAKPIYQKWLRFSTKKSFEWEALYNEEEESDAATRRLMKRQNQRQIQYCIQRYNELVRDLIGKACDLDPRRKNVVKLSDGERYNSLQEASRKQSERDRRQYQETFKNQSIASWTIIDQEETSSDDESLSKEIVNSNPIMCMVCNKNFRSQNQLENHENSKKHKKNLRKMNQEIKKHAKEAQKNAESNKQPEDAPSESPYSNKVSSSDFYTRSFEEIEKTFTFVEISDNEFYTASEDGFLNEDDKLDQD

variants of: B1; conditions: with epr1_schpo epr1, O14213
Observation Type: effect of a mutation on the interaction

// below: answered variants
>>> df
   variant_id                  result
0       I252T  disrupting interaction
1       V533A  decreasing interaction
2       F493L  disrupting interaction
3       K251E  disrupting interaction
4       V498A  decreasing interaction

Consider the record given below.
Ask | Supply recorded effect of a mutation on the interaction for `S256P` here.
Reply | disrupting interaction
